# Test system: A2780
# Experiment: In vitro cytotoxicity against A2780ADR cell line
# Condition Notes: Homo sapiens
Listed below: IC50 values for each entry.
Quantity Measured: IC50 (nM)

CC(=O)O[C@H]1C(=O)[C@@]2(C)[C@H]([C@H](OC(=O)c3ccccc3)[C@]34OC(=O)O[C@H]3[C@H](OC(=O)[C@](C)(O)[C@@H](NC(=O)OC(C)(C)C)C(F)(F)F)C(C)=C1C4(C)C)[C@]1(OC(C)=O)CO[C@@H]1C[C@@H]2O    79.3
CC(=O)O[C@H]1C(=O)[C@@]2(C)[C@H]([C@H](OC(=O)c3ccccc3)[C@]34OC(=O)O[C@H]3[C@H](OC(=O)[C@H](O)[C@H](CC(C)C)NC(=O)OC(C)(C)C)C(C)=C1C4(C)C)[C@]1(OC(C)=O)CO[C@@H]1C[C@@H]2O    63
CC(=O)O[C@H]1C(=O)[C@@]2(C)[C@H]([C@H](OC(=O)c3ccccc3)[C@]3(O)C[C@H](OC(=O)[C@](C)(O)[C@@H](NC(=O)OC(C)(C)C)c4ccco4)C(C)=C1C3(C)C)[C@]1(OC(C)=O)CO[C@@H]1C[C@@H]2O    41.3
CC(=O)O[C@H]1C(=O)[C@@]2(C)[C@H]([C@H](OC(=O)c3ccccc3)[C@]3(O)C[C@H](OC(=O)[C@](C)(O)[C@@H](NC(=O)c4ccccc4)c4ccco4)C(C)=C1C3(C)C)[C@]1(OC(C)=O)CO[C@@H]1C[C@@H]2O    61.4
CC(=O)O[C@H]1C(=O)[C@@]2(C)[C@H]([C@H](OC(=O)c3ccccc3)[C@]34OC(=O)O[C@H]3[C@H](OC(=O)[C@](C)(O)[C@@H](NC(=O)OC(C)(C)C)c3ccco3)C(C)=C1C4(C)C)[C@]1(OC(C)=O)CO[C@@H]1C[C@@H]2O    27.1
CC(=O)O[C@H]1C(=O)[C@@]2(C)[C@H]([C@H](OC(=O)c3ccccc3)[C@]34OC(=O)O[C@H]3[C@H](OC(=O)[C@](C)(O)[C@@H](NC(=O)OC(C)(C)C)c3ccccc3)C(C)=C1C4(C)C)[C@]1(OC(C)=O)CO[C@@H]1C[C@@H]2O    52.9

----------
# Test system: A2780
# Experiment: In vitro cytotoxicity against A2780 cell line
# Condition Notes: Homo sapiens
In plain terms, low IC50, meaning strictly below 3 nM, gives rule met, and everything else gives rule not met.

CC(=O)O[C@H]1C(=O)[C@@]2(C)[C@H]([C@H](OC(=O)c3ccccc3)[C@]3(O)C[C@H](OC(=O)[C@](C)(O)[C@@H](NC(=O)OC(C)(C)C)c4ccco4)C(C)=C1C3(C)C)[C@]1(OC(C)=O)CO[C@@H]1C[C@@H]2O    rule met
CC(=O)O[C@H]1C(=O)[C@@]2(C)[C@H]([C@H](OC(=O)c3ccccc3)[C@]34OC(=O)O[C@H]3[C@H](OC(=O)[C@H](O)[C@H](CC(C)C)NC(=O)OC(C)(C)C)C(C)=C1C4(C)C)[C@]1(OC(C)=O)CO[C@@H]1C[C@@H]2O    rule not met
CC(=O)O[C@H]1C(=O)[C@@]2(C)[C@H]([C@H](OC(=O)c3ccccc3)[C@]34OC(=O)O[C@H]3[C@H](OC(=O)[C@](C)(O)[C@@H](NC(=O)OC(C)(C)C)c3ccccc3)C(C)=C1C4(C)C)[C@]1(OC(C)=O)CO[C@@H]1C[C@@H]2O    rule met
CC(=O)O[C@H]1C(=O)[C@@]2(C)[C@H]([C@H](OC(=O)c3ccccc3)[C@]3(O)C[C@H](OC(=O)[C@](C)(O)[C@@H](NC(=O)c4ccccc4)c4ccco4)C(C)=C1C3(C)C)[C@]1(OC(C)=O)CO[C@@H]1C[C@@H]2O    rule not met
CC(=O)O[C@H]1C(=O)[C@@]2(C)[C@H]([C@H](OC(=O)c3ccccc3)[C@]34OC(=O)O[C@H]3[C@H](OC(=O)[C@](C)(O)[C@@H](NC(=O)OC(C)(C)C)c3ccco3)C(C)=C1C4(C)C)[C@]1(OC(C)=O)CO[C@@H]1C[C@@H]2O    rule not met
CC(=O)O[C@H]1C(=O)[C@@]2(C)[C@H]([C@H](OC(=O)c3ccccc3)[C@]34OC(=O)O[C@H]3[C@H](OC(=O)[C@](C)(O)[C@@H](NC(=O)OC(C)(C)C)C(F)(F)F)C(C)=C1C4(C)C)[C@]1(OC(C)=O)CO[C@@H]1C[C@@H]2O    rule not met
